Parameter: IC50 cAMP. Scope: all listed entries.
molecular target: glucagon receptor (GCGR) overexpressed CHO-K1 cells or human primary hepatocytes (Homo sapiens, UniProt P47871); construct: expressed in transfected cells; host or cells: GCGR overexpressed CHO-K1 cells or human primary hepatocytes (endogenous receptor); assay: Glucagon cAMP inhibition assay (Cisbio cAMP Dynamic 2 HTRF); type: cell-based; conditions: inhibition of glucagon (EC50 concentration) induced cAMP production
Sequence (P47871 26-477): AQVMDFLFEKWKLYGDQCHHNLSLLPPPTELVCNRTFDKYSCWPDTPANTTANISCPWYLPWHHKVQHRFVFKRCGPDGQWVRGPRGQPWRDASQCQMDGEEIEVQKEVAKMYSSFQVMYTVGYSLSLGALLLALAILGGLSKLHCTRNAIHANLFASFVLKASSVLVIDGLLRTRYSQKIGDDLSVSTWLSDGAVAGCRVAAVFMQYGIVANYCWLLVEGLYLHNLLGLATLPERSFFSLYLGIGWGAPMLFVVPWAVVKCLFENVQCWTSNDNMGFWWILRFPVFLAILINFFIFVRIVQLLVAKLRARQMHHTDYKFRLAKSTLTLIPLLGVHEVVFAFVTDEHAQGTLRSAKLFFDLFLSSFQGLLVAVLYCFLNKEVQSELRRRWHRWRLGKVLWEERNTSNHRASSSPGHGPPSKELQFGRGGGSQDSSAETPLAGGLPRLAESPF

| compound | IC50 cAMP / nM |
| --- | --- |
| CCCC[C@@H](COc1ccc(-c2ccc(C(F)(F)F)cc2Cl)nc1)Nc1ccc(C(=O)NCCC(=O)O)cc1 [Compound 10-11] | 537.4 |
| CCCC[C@@H](COc1cnc(-c2ccc(C(F)(F)F)cc2Cl)nc1)Nc1ccc(C(=O)NCCC(=O)O)cc1 [Compound 12-5] | 2357 |
| CCCC[C@@H](COc1ccc(-c2ccc(C(F)(F)F)cc2Cl)cc1)Nc1ccc(C(=O)NCc2nnn[nH]2)cc1 [Compound 1-20] | 524 |
| CCCC[C@@H](COc1ccc(-c2ccc(C(F)(F)F)cc2)c(OC)c1)Nc1ccc(C(=O)NCCC(=O)O)cc1 [Compound 13-11] | 118 |
| CCCC[C@@H](COc1cnc(-c2ccc(Cl)cc2Cl)nc1)Nc1ccc(C(=O)NCCC(=O)O)cc1 [Compound 12-7] | 3868 |
| CCCC[C@@H](COc1ccc(-c2cc3ccccc3o2)c(Cl)c1)Nc1ccc(C(=O)NCCC(=O)O)cc1 [Compound 3-10] | 88.7 |
| CC(C)C[C@@H](COc1cc(F)c(-c2ccc(Cl)cc2Cl)c(F)c1)Nc1ccc(C(=O)NCCC(=O)O)cc1 [Compound 7-8] | 329 |

====

molecular target: glucagon receptor (GCGR) overexpressed CHO-K1 cells or human primary hepatocytes (Homo sapiens); construct: expressed in transfected cells; host or cells: GCGR overexpressed CHO-K1 cells or human primary hepatocytes (endogenous receptor); test: Glucagon cAMP inhibition assay (Cisbio cAMP Dynamic 2 HTRF); format: cell-based

| compound | IC50 cAMP, nM |
| --- | --- |
| CC(C)[C@H](Nc1ccc(C(=O)NCCC(=O)O)cc1)C(=O)Nc1ccc(-c2cc3ccccc3o2)cc1 [Compound 23-33] | 1633 |
| CC(C)(C)c1ccc(-c2nnc([C@H](Cc3ccc(-c4cc5ccccc5o4)cc3)Nc3ccc(C(=O)NCCC(=O)O)cc3)o2)cc1 [Compound 20-1] | 1403 |
| CCCOC[C@H](Cc1ccc(-c2ccc(C(F)(F)F)cc2)cc1)Nc1ccc(C(=O)NCCC(=O)O)cc1 [Compound 19-13] | 740 |
| CC(C)[C@@H](COc1ccc(-c2cc3ccccc3o2)cn1)Nc1ccc(C(=O)NCCC(=O)O)cc1 [Compound 15-3] | 111 |
| CC(C)COC[C@H](Cc1ccc(-c2cc3ccccc3o2)cc1)Nc1ccc(C(=O)NCCC(=O)O)cc1 [Compound 19-32] | 1017 |
| CC(C)(C)c1ccc(NC(=O)[C@H](Cc2cccc3ccccc23)Nc2ccc(C(=O)NCCC(=O)O)cc2)cc1 [Compound 23-18] | 4700 |
| CC[C@H](C)[C@@H](COc1ccc(-c2ccc(C(F)(F)F)cc2)cn1)Nc1ccc(C(=O)NCCC(=O)O)cc1 [Compound 15-12] | 294 |

====

target: glucagon receptor (GCGR) (Homo sapiens); construct: expressed in transfected cells; host or cells: CHO-K1 cells overexpressing GCGR (membrane fractions); assay: I125-glucagon binding assay (competition, GCGR membrane fractions)

| compound | unit_spec | comparison_operator | IC50 |
| --- | --- | --- | --- |
| CC(C)(C)c1ccc(-c2ccc(OC[C@@H](Nc3ccc(C(=O)NC[C@@H](O)C(=O)O)cc3)c3ccccc3)nc2)cc1 | nM | = | 172 |
| O=C(O)CCNC(=O)c1ccc(N[C@@H](Cc2cccc3ccccc23)C(=O)Nc2ccc(-c3cc4ccccc4o3)cc2)cc1 | nM | = | 3010 |
| Cc1nc(OC[C@H](CC(C)C)Nc2ccc(C(=O)NCCC(=O)O)cc2)ccc1-c1ccc(C(F)(F)F)cc1Cl | nM | = | 74 |
| CCCC[C@@H](COc1ccc(-c2ccc(Cl)cc2Cl)cn1)Nc1ccc(C(=O)NCCC(=O)O)cc1 | nM | = | 301 |
| CCCOC[C@H](Cc1ccc(-c2ccc(C(C)(C)C)cc2)cc1)Nc1ccc(C(=O)NCCC(=O)O)cc1 | nM | = | 763 |
| O=C(O)CCNC(=O)c1ccc(N[C@H](COc2ccc(-c3cc4ccccc4o3)cn2)c2ccccc2)cc1 | nM | = | 706 |
| Cc1cc(C)c(-c2ccc(C[C@H](Nc3ccc(C(=O)NCCC(=O)O)cc3)C(=O)Nc3ccc(C(C)(C)C)cc3)cc2)c(C)c1 | nM | = | 458 |
| CCC(C)[C@H](Nc1ccc(C(=O)NCCC(=O)O)cc1)c1nnc(-c2oc3ccccc3c2C)o1 (stereo partly drawn) | nM | = | 974 |
| CCOC(=O)CCNC(=O)c1ccc(N[C@H](C(=O)Nc2ccc(-c3cc4ccccc4o3)cc2)C(C)C)cc1 | nM | = | 5180 |
| CC[C@H](C)[C@@H](COc1ccc(-c2ccc(F)cc2F)cn1)Nc1ccc(C(=O)NCCC(=O)O)cc1 | nM | = | 382 |
| CC[C@H](C)[C@H](Nc1ccc(C(=O)NCCC(=O)O)cc1)C(=O)Nc1ccc2cc(OC)ccc2c1 | nM | = | 1030 |
| CCCOC[C@H](Cc1ccc(-c2cc3ccccc3[nH]2)cc1)Nc1ccc(C(=O)NCCC(=O)O)cc1 | nM | = | 455 |
| CC(C)(C)c1nnc(-c2ccc(OC[C@@H](Nc3ccc(C(=O)NCCC(=O)O)cc3)c3ccc(-c4ccc(Cl)cc4Cl)cc3)nc2)o1 | nM | = | 3000 |
| CCOC(=O)CCNC(=O)c1ccc(N[C@H](Cc2ccc(-c3cc4ccccc4o3)cc2)C(=O)Nc2ccc(C(F)(F)F)cc2)cc1 | nM | = | 1370 |
| CCCOC[C@H](Cc1ccc(-c2ccc(Cl)cc2Cl)cc1)Nc1ccc(C(=O)NCCC(=O)O)cc1 | nM | = | 2670 |
| CCOC(=O)CCNC(=O)c1ccc(N[C@H](Cc2ccc(-c3cc4ccccc4o3)cc2)C(=O)NC(C)C)cc1 | nM | = | 4100 |
| CCOC(=O)CCNC(=O)c1ccc(N[C@@H](Cc2ccccc2)C(=O)Nc2ccc(-c3cc4ccccc4o3)cc2)cc1 | nM | = | 4270 |
| CCCC[C@H](Nc1ccc(C(=O)NCCC(=O)O)cc1)C(=O)Nc1ccc(-c2cc3ccccc3o2)cc1 | nM | = | 186 |
| CC[C@H](C)[C@@H](COc1nnc(-c2ccc(C(F)(F)F)cc2F)o1)Nc1ccc(C(=O)NCCC(=O)OC)cc1 | nM | > | 30000 |
| CC(C)[C@@H](COc1ccc(-c2nc3ccccc3s2)cn1)Nc1ccc(C(=O)NCCC(=O)O)cc1 | nM | = | 468 |
| CCCOC[C@H](Cc1ccc(-c2ccc(OC(F)(F)F)cc2)cc1)Nc1ccc(C(=O)NCCC(=O)O)cc1 [Compound 19-14] | nM | = | 444 |
| CCCC[C@@H](COc1nnc(-c2ccc(C(C)(C)C)cc2)o1)Nc1ccc(C(=O)NCCC(=O)O)cc1 | nM | > | 30000 |
| C[C@@H](Cc1ccc(-c2ccc(C(C)(C)C)cc2)cc1)Nc1ccc(C(=O)NCCC(=O)O)cc1 | nM | = | 1630 |
| CCCOC[C@H](Cc1ccc(-c2ccc(OC(F)(F)F)cc2)cc1)Nc1ccc(C(=O)NCCC(=O)O)cc1 [Compound 19-24] | nM | = | 512 |
| O=C(O)CCNC(=O)c1ccc(N[C@@H](Cc2ccccc2)C(=O)Nc2ccc(C(F)(F)F)cc2)cc1 | nM | = | 7400 |
| CC(C)(C)c1ccc(-c2nnc([C@H](Cc3ccc(-c4cc5ccccc5o4)cc3)Nc3ccc(C(=O)NCCC(=O)O)cc3)o2)cc1 | nM | = | 201 |
| CC(C)C[C@H](Cc1ccc(-c2ccc(C(C)(C)C)cc2)cc1)Nc1ccc(C(=O)NCCC(=O)O)cc1 | nM | = | 152 |

====

biological target: glucagon receptor (GCGR) overexpressed CHO-K1 cells or human primary hepatocytes (Homo sapiens); construct: expressed in transfected cells; host or cells: GCGR overexpressed CHO-K1 cells or human primary hepatocytes (endogenous receptor); assay: Glucagon cAMP inhibition assay (Cisbio cAMP Dynamic 2 HTRF); format: cell-based; conditions: inhibition of glucagon (EC50 concentration) induced cAMP production

| smiles_text | IC50 cAMP [nM] |
| --- | --- |
| CC[C@H](C)[C@@H](COc1ccc(-c2ccc(Cl)cc2Cl)c(OC)c1)Nc1ccc(C(=O)NCCC(=O)O)cc1 | 254 |
| CC(C)[C@@H](Cc1noc(-c2ccc(C(C)(C)C)cc2)n1)Nc1ccc(C(=O)NCCC(=O)O)cc1 | 5436 |
| CC[C@H](C)[C@@H](COc1ccc(-c2cc3ccccc3o2)c(F)c1)Nc1ccc(C(=O)NCCC(=O)O)cc1 | 129 |
| CC[C@H](C)[C@@H](COc1ccc(-c2ccc(Cl)cc2Cl)c(F)c1)Nc1ccc(C(=O)NCCC(=O)O)cc1 | 269.1 |
| CC[C@H](C)[C@@H](COc1ccc(-c2ccc(C(F)(F)F)cc2)nn1)Nc1ccc(C(=O)NCCC(=O)O)cc1 | 1307 |
| COc1cc(OC[C@@H](Nc2ccc(C(=O)NCCC(=O)O)cc2)C(C)C)ccc1-c1ccc(C(F)(F)F)cc1 | 246 |
| COc1cc(OC[C@@H](Nc2ccc(C(=O)NCCC(=O)O)cc2)C(C)C)ccc1-c1cc2ccccc2o1 | 112 |
